This collection of values is drawn from patent US6620831B2.

measurementTarget: CDK2/cyclin A (Homo sapiens, UniProt P24941)
experimentNotes: CDK2 inhibitory activity (CDK2/cyclin A, [gamma-32P] ATP, histon H1 or Rb protein substrate)
measurementContext: first IC50 column (c1) of Table 1
pIC50: −log10 of the molar value.
Examples of compounds with documented pIC50 follow.

The examples below pair each entry with its known result.
O=C(Cc1ccc(Br)cc1)Nc1n[nH]c2ccc(N3CCCS3(=O)=O)cc12    > 7.30
O=C(Cc1ccc(Cn2ccnc2)cc1)Nc1n[nH]c2ccc(N3CCCS3(=O)=O)cc12    > 6.00
CCOCCOCCOc1ccc(CC(=O)Nc2n[nH]c3ccc(N4CCCS4(=O)=O)cc23)cc1    > 7.00
O=C(Nc1n[nH]c2ccc(N3CCCS3(=O)=O)cc12)C1(c2ccccc2)CCCC1    > 4.00
O=C(Cc1ccc2ccccc2c1)Nc1n[nH]c2ccc(N3CCCS3(=O)=O)cc12    > 7.30
CN1CCN(S(=O)(=O)c2ccc(CC(=O)Nc3n[nH]c4ccc(N5CCCS5(=O)=O)cc34)cc2)CC1    > 6.00

Enter reported pIC50 observed with CDK2/cyclin A (Homo sapiens, UniProt P24941) for COCCOCCOCCOc1ccc(CC(=O)Nc2n[nH]c3ccc(N4CCCS4(=O)=O)cc23)cc1
> 7.00

Item: O=S1(=O)CCCN1c1ccc2[nH]nc(NC(Cc3ccccc3)=NO)c2c1
> 5.00

Item: CC(=O)Nc1n[nH]c2ccc(N3CCCS3(=O)=O)cc12
< 4.00
